- Test system: Plasmodium falciparum
- measurement-notes: Primary screen in NF54 nanoGlo assay, in single point, at 2uM, 72h; a lower Z score goes with more inhibition
- Format: functional, Erythrocyte
- setup-conditions: timepoint 72 hour
The whole screen tested about 150,000 compounds, of which about 540 (0.36%) showed an effect of 50% or more. The sample as a whole holds a higher share of strong results than the screen did.
If the reported Z score equals or exceeds 0.4, assign MET. If not, assign NOT MET.

Known results for molecules:
COc1ccc(CCNC(=O)c2cc3c(=O)[nH]c(C)cn3n2)cc1OC	NOT MET
Cc1cn2nc(C(=O)NCCc3ccccc3)cc2c(=O)[nH]1	NOT MET

Say whether CC(C)c1nc(C(=O)Nc2[nH]nc(C3CC3)c2C#N)cs1 shows Z score of 0.4 or more.
MET

Please tell me: is the molecule Cc1cc(N)n(-c2nc(-c3ccccc3)cc(=O)[nH]2)n1 at or over 0.4 in terms of Z score?
NOT MET

Exam item: decide whether the reported Z score for O=C(c1cnnn1-c1cccc(F)c1)N1CCCC12CCC2 is at least 0.4.
NOT MET

Assess whether reported Z score for Nc1ccc(F)cc1NC(=O)c1coc(-c2ccccc2)n1 sits at 0.4 or higher.
MET

Hi team, for Cc1noc(C)c1CN1C[C@@H]2Oc3cc(F)ccc3C(=O)N(C)[C@@H]2C1 , is the recorded Z score at or above 0.4?
NOT MET
